biological target: gp120-CD4 interaction (Human immunodeficiency virus type 1 group M subtype B, UniProt P03375); test: biochemical
Value Type: pIC50
Note on pIC50: it is the negative log10 of concentration, concentration in mol/L.

Recorded pIC50 (compound `COc1ccc(-c2ccc(CNC(=O)COCCOCCOCCOCCn3cc(COCCOCCOCCOCCNc4ccc([N+](=O)[O-])cc4[N+](=O)[O-])nn3)o2)c2[nH]cc(C(=O)C(=O)N3CCN(C(=O)c4ccccc4O)CC3)c12` ): 6.31

Recorded pIC50 (compound `COc1ccc(-c2ccc(CNC(=O)COCCOCCOCCOCCn3cc(COCCOCCOCCOCCNc4ccc([N+](=O)[O-])cc4[N+](=O)[O-])nn3)o2)c2[nH]cc(C(=O)C(=O)N3CCN(C(=O)c4cccc(O)c4)CC3)c12` ): 6.70

Recorded pIC50 (compound `COc1ccc(-c2ccc(CNC(=O)COCCOCCOCCOCCn3cc(COCCOCCOCCOCCNc4ccc([N+](=O)[O-])cc4[N+](=O)[O-])nn3)o2)c2[nH]cc(C(=O)C(=O)N3CCN(C(=O)c4ccc5ccccc5c4)CC3)c12` ): 5.28
